Values from ChEMBL document CHEMBL4689842

system: HEK-293T; test: Multiplex assay against HEK293T; format: toxicity, cell-based; details: human, 48 h, 10 µM, compound concentration 10 uM, replicate 1

>  <compound>
CC(C)NCC(O)COc1ccc(CCOCC2CC2)cc1.Cl (configuration not stated) [BETAXOLOL HYDROCHLORIDE]

>  <Population Fragmented Nuclei (%)>
14

$$$$
>  <compound>
Cc1csc2c(N[C@@H](C)CN3CCN(S(=O)(=O)c4ccc(Cl)c(Cl)c4)CC3)ncnc12

>  <Population Fragmented Nuclei (%)>
23

$$$$
>  <compound>
c1cn2cc(-c3ccc4cn[nH]c4c3)nc(Nc3ccc(N4CCOCC4)cc3)c2n1 [ENTOSPLETINIB]

>  <Population Fragmented Nuclei (%)>
64

$$$$
>  <compound>
C=CC(=O)Nc1ccc2ncnc(Nc3ccc(OCc4cccc(F)c4)c(Cl)c3)c2c1.Cc1ccc(S(=O)(=O)O)cc1

>  <Population Fragmented Nuclei (%)>
16

$$$$
>  <compound>
COc1cc2nccc(Oc3ccc(NC(=O)Nc4cc(C)on4)c(Cl)c3)c2cc1OC.O

>  <Population Fragmented Nuclei (%)>
14

$$$$
>  <compound>
CN1CCN(c2ccc(OC(F)(F)F)c(Nc3ncc4c(n3)-c3c(c(C(N)=O)nn3CCO)CC4)c2)CC1 [ONVANSERTIB]

>  <Population Fragmented Nuclei (%)>
14

$$$$
>  <compound>
C[C@@]1(C(=O)Nc2ccc(F)nc2)CCCN1c1nc(Nc2cc(C3CC3)n[nH]2)c2cccn2n1 [BMS-754807]

>  <Population Fragmented Nuclei (%)>
17

$$$$

----------
Population Mitotic Cells (%) reference
tested on: U2OS; assay: Multiplex assay against U2OS; format: toxicity, cell-based; details: human, 48 h, 1 µM, compound concentration 1 uM, replicate 2

>  <compound>
CN1CCCC(n2nc(Cc3ccc(Cl)cc3)c3ccccc3c2=O)CC1.Cl (stereo not drawn) [AZELASTINE HYDROCHLORIDE]

>  <display_unit>
%

>  <Population Mitotic Cells (%)>
50

$$$$
>  <compound>
C=CC(=O)Nc1cccc(C(=O)Nc2ccc(Nc3cc(-c4[nH]c(SC)nc4C)ccn3)cc2)c1

>  <display_unit>
%

>  <Population Mitotic Cells (%)>
81

$$$$
>  <compound>
O=C1NCN(c2ccccc2)C12CCN(CCCOc1ccc(F)cc1)CC2 [SPIRAMIDE]

>  <display_unit>
%

>  <Population Mitotic Cells (%)>
83

$$$$

----------
tested on: Fibroblast; experiment: Multiplex assay against human fibroblast; format: toxicity, cell-based; details: 48 h, 1 µM, compound concentration 1 uM, replicate 2
readout_type: Population Membrane Permeable-Phenotype (%)

>  <molecule>
CN1CCCC(n2nc(Cc3ccc(Cl)cc3)c3ccccc3c2=O)CC1.Cl (configuration not stated) [AZELASTINE HYDROCHLORIDE]

>  <subject_of_test>
Fibroblast

>  <observed>
10

$$$$
>  <molecule>
CN(C)C(=O)N[C@H]1CC[C@H](CCN2CCN(c3cccc(Cl)c3Cl)CC2)CC1.Cl [CARIPRAZINE HYDROCHLORIDE]

>  <subject_of_test>
Fibroblast

>  <observed>
7

$$$$
>  <molecule>
CN(C)C(=O)/C(C#N)=C/c1ccc(-c2nc3cnc4[nH]ccc4c3n2C2CCCCC2)o1

>  <subject_of_test>
Fibroblast

>  <observed>
14

$$$$
>  <molecule>
CC(C)NCC(O)COc1ccc(CCOCC2CC2)cc1.Cl (configuration not stated) [BETAXOLOL HYDROCHLORIDE]

>  <subject_of_test>
Fibroblast

>  <observed>
13

$$$$
>  <molecule>
CN1CCC[C@@H]1CCO[C@](C)(c1ccccc1)c1ccc(Cl)cc1.O=C(O)/C=C/C(=O)O [CLEMASTINE FUMARATE]

>  <subject_of_test>
Fibroblast

>  <observed>
11

$$$$
>  <molecule>
CC[C@H](C)C(=O)O[C@H]1C[C@@H](C)C=C2C=C[C@H](C)[C@H](CC[C@@H]3C[C@@H](O)CC(=O)O3)[C@H]21 [LOVASTATIN]

>  <subject_of_test>
Fibroblast

>  <observed>
23

$$$$
>  <molecule>
Cc1c(-c2ccc(O)cc2)n(Cc2ccc(OCCN3CCCCCC3)cc2)c2ccc(O)cc12 [BAZEDOXIFENE]

>  <subject_of_test>
Fibroblast

>  <observed>
15

$$$$

----------
system: U2OS; experiment: Incucyte cell viability with U2OS; assay type: toxicity, cell-based; details: human, 6 h, 10 µM, compound concentration 10 uM, replicate number 1, timepoint 6 hours; also: filed as whole numbers so only -1 and 0 and 1 occur

>  <compound>
Cc1c(C(=O)NC2CCCCC2)sc2nc3ccc(N)cc3n12.Cl

>  <Growth Rate>
1

$$$$
>  <compound>
CCC(=O)N1CCOc2c(cc(-c3ccc(OC)c(OC)c3)cc2OC[C@H]2CCCN(C)C2)C1

>  <Growth Rate>
0

$$$$
>  <compound>
Cc1nc(Nc2n[nH]c3c2CN(C(=O)N[C@H](CN(C)C)c2ccccc2)C3(C)C)c2sccc2n1

>  <Growth Rate>
0

$$$$
>  <compound>
Br.Br.N=C(N)SCCc1c[nH]cn1

>  <Growth Rate>
0

$$$$
>  <compound>
Cn1cnc2c(F)c(Nc3ccc(Br)cc3Cl)c(C(=O)NOCCO)cc21

>  <Growth Rate>
0

$$$$
>  <compound>
C=CC(=O)Nc1cccc(C(=O)Nc2ccc(Nc3cc(-c4[nH]c(SC)nc4C)ccn3)cc2)c1

>  <Growth Rate>
0

$$$$
>  <compound>
Cc1nc(-c2cn3c(n2)-c2ccc(-c4cnn(C(C)(C)C(N)=O)c4)cc2OCC3)n(C(C)C)n1

>  <Growth Rate>
0

$$$$
>  <compound>
C[C@@]1(C(=O)Nc2ccc(F)nc2)CCCN1c1nc(Nc2cc(C3CC3)n[nH]2)c2cccn2n1

>  <Growth Rate>
0

$$$$
>  <compound>
Nc1c(C(=O)NCc2ccc(C(=O)NCCCC3CCCCC3)cc2)cnn1-c1ccccc1

>  <Growth Rate>
1

$$$$
>  <compound>
CNc1nc(NCc2ccc(NS(C)(=O)=O)cc2Cl)cc(-c2ccccn2)n1

>  <Growth Rate>
0

$$$$
>  <compound>
CN1C(=O)[C@@H](N2CCc3cn(Cc4ccccc4)nc3C2=O)COc2ccccc21

>  <Growth Rate>
1

$$$$
>  <compound>
CN(c1ccnc(CNc2nc(Nc3ccc4c(c3)CC(=O)N4)ncc2C(F)(F)F)n1)S(C)(=O)=O

>  <Growth Rate>
0

$$$$
>  <compound>
Cn1cc(C2=C(c3cn(C4CCN(Cc5ccccn5)CC4)c4ccccc34)C(=O)NC2=O)c2ccccc21

>  <Growth Rate>
0

$$$$
>  <compound>
CC(C)S(=O)(=O)c1ccc2nccc(Nc3ccc4scnc4c3)c2c1

>  <Growth Rate>
0

$$$$
>  <compound>
O=C(NCc1ccccc1)c1ccc(S(=O)(=O)NCc2ccccc2)cc1

>  <Growth Rate>
0

$$$$
>  <compound>
O=C(NCCCN1CCOC1=O)c1cnc(NCc2cc(Br)ccc2Br)nc1NC1CCCC1

>  <Growth Rate>
1

$$$$
>  <compound>
COc1ccc(C2(O)OC(=O)C(c3ccc4c(c3)OCO4)=C2Cc2cc(OC)c(OC)c(OC)c2)cc1 (centres undefined)

>  <Growth Rate>
1

$$$$
>  <compound>
CN1CCN(CCOc2cc(OC3CCOCC3)c3c(Nc4c(Cl)ccc5c4OCO5)ncnc3c2)CC1

>  <Growth Rate>
0

$$$$
>  <compound>
COc1cc(-n2cnc3cc(-c4ccc(Cl)cc4)sc3c2=O)ccc1OCCN1CCCC1

>  <Growth Rate>
0

$$$$

----------
test system: HEK-293T; assay: Multiplex assay against HEK293T; type: toxicity, cell-based; details: human, 24 h, 10 µM, compound concentration 10 uM, replicate 1
Population Normal (%) reference

>  <compound>
C[C@@H](NCCCc1cccc(C(F)(F)F)c1)c1cccc2ccccc12.Cl [CINACALCET HYDROCHLORIDE]

>  <Population Normal (%)>
80

$$$$
>  <compound>
C=CC(=O)Nc1ccc2ncnc(Nc3ccc(OCc4cccc(F)c4)c(Cl)c3)c2c1.Cc1ccc(S(=O)(=O)O)cc1

>  <Population Normal (%)>
83

$$$$
>  <compound>
CC(C)(O)CNc1ncc(-c2ccnc(Nc3ccnc(Cl)c3)n2)c(CC2CC2)n1

>  <Population Normal (%)>
76

$$$$
>  <compound>
c1cn2cc(-c3ccc4cn[nH]c4c3)nc(Nc3ccc(N4CCOCC4)cc3)c2n1 [ENTOSPLETINIB]

>  <Population Normal (%)>
71

$$$$
>  <compound>
COc1cccc([C@@H](C)NCCCc2ccccc2Cl)c1.Cl [TECALCET HYDROCHLORIDE]

>  <Population Normal (%)>
90

$$$$
>  <compound>
CNc1nc(NCc2ccc(NS(C)(=O)=O)cc2Cl)cc(-c2ccccn2)n1

>  <Population Normal (%)>
85

$$$$
>  <compound>
Cn1cncc1[C@@](O)(COc1ccc(C#N)cc1-c1ccc(OC(F)(F)F)cc1)c1ccc(C#N)cc1 [A-108]

>  <Population Normal (%)>
89

$$$$
>  <compound>
CN1CCN(CCOc2cc(OC3CCOCC3)c3c(Nc4c(Cl)ccc5c4OCO5)ncnc3c2)CC1 [SARACATINIB]

>  <Population Normal (%)>
76

$$$$
>  <compound>
CN(C)C(=O)N[C@H]1CC[C@H](CCN2CCN(c3cccc(Cl)c3Cl)CC2)CC1.Cl [CARIPRAZINE HYDROCHLORIDE]

>  <Population Normal (%)>
85

$$$$
>  <compound>
COc1ncc(-c2ccc3nccc(-c4ccnnc4)c3c2)cc1NS(=O)(=O)c1ccc(F)cc1F [OMIPALISIB]

>  <Population Normal (%)>
75

$$$$
>  <compound>
CN(C)C(=O)/C(C#N)=C/c1ccc(-c2nc3cnc4[nH]ccc4c3n2C2CCCCC2)o1

>  <Population Normal (%)>
58

$$$$
>  <compound>
Cl.N#Cc1ccc2[nH]cc(CCCCN3CCN(c4ccc5oc(C(N)=O)cc5c4)CC3)c2c1 [VILAZODONE HYDROCHLORIDE]

>  <Population Normal (%)>
78

$$$$
>  <compound>
O=C1NCN(c2ccccc2)C12CCN(CCCOc1ccc(F)cc1)CC2 [SPIRAMIDE]

>  <Population Normal (%)>
82

$$$$
>  <compound>
Cc1[nH]c(/C=C2\C(=O)Nc3ccc(S(=O)(=O)N(C)c4cccc(Cl)c4)cc32)c(C)c1C(=O)N1CCN(C)CC1

>  <Population Normal (%)>
87

$$$$
>  <compound>
CN1CCC[C@@H]1CCO[C@](C)(c1ccccc1)c1ccc(Cl)cc1.O=C(O)/C=C/C(=O)O [CLEMASTINE FUMARATE]

>  <Population Normal (%)>
76

$$$$
>  <compound>
Cn1cc(-c2[nH]c3cc(NC(=O)[C@H](N)C4CCCCC4)cc4c3c2C=NNC4=O)cn1

>  <Population Normal (%)>
82

$$$$
>  <compound>
Cc1nc(Nc2n[nH]c3c2CN(C(=O)N[C@H](CN(C)C)c2ccccc2)C3(C)C)c2sccc2n1 [PF-03758309]

>  <Population Normal (%)>
85

$$$$
>  <compound>
Cc1csc2c(N[C@@H](C)CN3CCN(S(=O)(=O)c4ccc(Cl)c(Cl)c4)CC3)ncnc12

>  <Population Normal (%)>
83

$$$$
>  <compound>
COc1cc(-n2cnc3cc(-c4ccc(Cl)cc4)sc3c2=O)ccc1OCCN1CCCC1

>  <Population Normal (%)>
69

$$$$
